Tested on: CCRF-CEM leukemia
EXPERIMENT SUMMARY: NCI-60 one-dose screen, 48 h (100 = growth as untreated, 0 = no growth, -100 = all killed)
CONDITION SUMMARY: 10 µM unless noted
Compounds without any hit were thinned out: in the full panel of roughly 83,000, 20% have a hit.
PROPERTY MEASURED: growth (%)
Give bare numbers, in %.

Quick batch: growth for everything below.
1. COc1cc(NC(=O)CSc2nc3ccc(C)cc3c(=O)n2Cc2ccccc2)cc(OC)c1OC
2. CC(Sc1nc2ccccc2c(=O)n1CCc1ccc(S(N)(=O)=O)cc1)C(=O)Nc1ccc(Cl)cc1 (stereo not drawn)
3. O=C(O)c1ccc(NCc2cn(-c3ccc(C(F)(F)F)cc3)nc2-c2ccc(C(=O)O)cc2)cc1
4. C=C(C)[C@@H]1CC[C@]2(C(=O)N3CCN(C)CC3)CC[C@]3(C)[C@H](CC[C@@H]4[C@@]5(C)C/C(=C/c6cccnc6)C(=O)C(C)(C)[C@@H]5CC[C@]43C)[C@@H]12
5. Nc1c(C(=O)Nc2cccc3cnccc23)sc2nc3c(cc12)C(=O)CCC3

Out:
1. 94.1
2. 63.7
3. 106
4. 28.9
5. 64.6

The values you see were collected from PubChem BioAssay (NCI).
